Tested System: furin, P09958;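 further: purified furin at 1:10 enzyme:substrate in 50 mM HEPES pH 7.5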
Sequence (P09958 whole entry): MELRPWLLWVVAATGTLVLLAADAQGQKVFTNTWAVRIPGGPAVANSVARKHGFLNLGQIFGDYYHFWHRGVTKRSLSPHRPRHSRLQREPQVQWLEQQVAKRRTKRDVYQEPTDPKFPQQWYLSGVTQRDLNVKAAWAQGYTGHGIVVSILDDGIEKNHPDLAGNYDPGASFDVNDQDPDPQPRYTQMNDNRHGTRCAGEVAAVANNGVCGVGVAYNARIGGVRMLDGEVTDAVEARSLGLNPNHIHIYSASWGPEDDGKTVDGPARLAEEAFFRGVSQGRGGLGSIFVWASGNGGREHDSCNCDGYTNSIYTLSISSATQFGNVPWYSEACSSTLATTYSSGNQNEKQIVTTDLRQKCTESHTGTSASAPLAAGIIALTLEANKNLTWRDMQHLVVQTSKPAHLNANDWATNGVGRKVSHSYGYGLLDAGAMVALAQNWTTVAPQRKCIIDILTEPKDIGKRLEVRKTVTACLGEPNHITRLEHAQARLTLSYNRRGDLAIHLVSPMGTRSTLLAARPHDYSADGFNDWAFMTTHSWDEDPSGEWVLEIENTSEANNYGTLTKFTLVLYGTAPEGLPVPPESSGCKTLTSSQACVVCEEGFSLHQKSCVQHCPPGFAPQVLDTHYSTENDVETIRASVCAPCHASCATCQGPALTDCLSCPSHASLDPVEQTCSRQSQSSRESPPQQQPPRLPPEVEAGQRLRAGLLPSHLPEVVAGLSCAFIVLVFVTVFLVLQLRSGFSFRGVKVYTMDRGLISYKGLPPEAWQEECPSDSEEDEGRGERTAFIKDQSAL
Assay: furin cleavage Z-score vs untreated control; higher = more cleavage, active = 3.5 or more, inactive = 1 or less, 8 variable residues between constant flanks
Condition Label: 15 min
The list shows a part of the results. The true hit rate is not given.
Reported furin cleavage Z-score by item:
Give only the figure.

// solved cases for furin cleavage Z-score follow
CARKKRQVPYAGNASASA [FS-2269]: 7.2
CARMDRVKKEAGNASASA [FS-953]: 2.5
CAGDGRSYRGAGNASASA [FS-529]: -0.653
CARPRRTKKTAGNASASA [DV3]: 1.59
CAGGSAGHTVAGNASASA [HC355]: -0.487
CAGKGRKYREAGNASASA [FS-125]: 9.76
CALYVGDLCGAGNASASA [HC298]: -0.331
CATHVTGGSAAGNASASA [HC353]: -0.337
CARKSRSPHNAGNASASA [FS-3224]: 8.27
CAVMGRMKREAGNASASA [FS-892]: 13.9

Just so you know, measured furin cleavage Z-score for CAKCTTPCSGAGNASASA [HC1954] came out at 0.0622

Given item CAMTECSQHLAGNASASA [HC1698] , the value recorded as its furin cleavage Z-score is 0.668

So, CAALAELATRAGNASASA [HC1332] ? Its furin cleavage Z-score was -0.0975

Recorded furin cleavage Z-score (sequence CAGSSSTSGIAGNASASA [HC1337] ): 0.604

// furin cleavage Z-score value for CARKKRSEYYAGNASASA [FS-1957] : 8.3
